Biological target: T1, human LTBR ECD (S28-M227) N- and C-terminally extended-Fc-fusion wt kih HRYF-Avi-His biotinylated (P1AE7979) (human, UniProt P0DOX5 223-449 = IgG part, biotinylated avi tag)
T1 construct: also called hu LTBR
Assay: SPR, IgG captured;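 note: rate constants and KD obtained by fitting double-referenced sensorgrams to a 1:1 Langmuir binding model, with dissociation followed for 600 s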
readoutLabel: koff (s⁻¹)

[
  {
    "binder": "P1AF0064 (antibody, human IgG1, kappa, L234A L235A, V domains shown, human IgG1 PG LALA constant regions; V domains from rat immunization; also called LTBR (0064)) VH: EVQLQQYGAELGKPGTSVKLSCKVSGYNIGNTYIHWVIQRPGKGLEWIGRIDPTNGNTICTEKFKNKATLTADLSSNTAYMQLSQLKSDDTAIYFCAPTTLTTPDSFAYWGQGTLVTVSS VL: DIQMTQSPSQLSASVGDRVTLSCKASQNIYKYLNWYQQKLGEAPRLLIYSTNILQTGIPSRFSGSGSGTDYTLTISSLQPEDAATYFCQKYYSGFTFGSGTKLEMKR",
    "readoutLabel": "koff",
    "measuredValue": "6.75e-05"
  }
]
